Origin of measurements: ChEMBL document CHEMBL1133553

# targetDesc: Sodium-dependent serotonin transporter (Rattus norvegicus, UniProt P31652)
# Sequence (P31652 whole entry): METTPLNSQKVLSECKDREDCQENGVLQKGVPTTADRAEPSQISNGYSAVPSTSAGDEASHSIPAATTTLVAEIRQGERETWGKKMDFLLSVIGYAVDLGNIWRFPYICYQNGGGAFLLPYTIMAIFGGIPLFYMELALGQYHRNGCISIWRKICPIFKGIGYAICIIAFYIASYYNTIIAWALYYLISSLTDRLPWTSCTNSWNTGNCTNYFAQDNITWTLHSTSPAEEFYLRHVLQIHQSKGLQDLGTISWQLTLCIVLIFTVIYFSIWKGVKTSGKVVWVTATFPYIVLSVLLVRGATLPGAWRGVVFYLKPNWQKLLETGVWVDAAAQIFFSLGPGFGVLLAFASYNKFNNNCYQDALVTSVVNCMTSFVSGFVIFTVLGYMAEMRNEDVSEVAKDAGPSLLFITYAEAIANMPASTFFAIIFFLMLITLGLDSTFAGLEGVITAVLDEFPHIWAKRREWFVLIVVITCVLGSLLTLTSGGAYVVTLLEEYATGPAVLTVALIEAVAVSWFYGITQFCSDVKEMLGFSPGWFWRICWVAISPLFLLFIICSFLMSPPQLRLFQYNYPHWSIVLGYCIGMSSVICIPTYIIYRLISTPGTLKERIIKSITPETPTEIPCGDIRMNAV
# procedureSummary: Inhibition of [3H]5-HT reuptake in whole rat brain (minus cerebellum) homogenate.
# Type: functional, tissue-based
Note to self: class labels come from recorded IC50, ranges listed here: low-valued = under 900 nM, mid-valued = from 900 nM up to 2000 nM, high-valued = 2000 nM and over

Use the examples below as a reference point.
compound: c1ccc(CCCN2C3CCC2CN(CCOC(c2ccccc2)c2ccccc2)CC3)cc1 (configuration not stated)
targetDesc: Sodium-dependent serotonin transporter (Rattus norvegicus, UniProt P31652)
categoryLabel: high-valued
//
compound: c1ccc(CCCN2C3CCC2CN(CCOC(c2ccccc2)c2ccccc2)C3)cc1
targetDesc: Sodium-dependent serotonin transporter (Rattus norvegicus, UniProt P31652)
categoryLabel: mid-valued
//
compound: Fc1ccc(C(OCCN2CC3CCC(C2)N3C/C=C/c2ccco2)c2ccc(F)cc2)cc1
targetDesc: Sodium-dependent serotonin transporter (Rattus norvegicus, UniProt P31652)
categoryLabel: low-valued
//
compound: CN1CC2CC1CN2CCOC(c1ccc(F)cc1)c1ccc(F)cc1 (configuration not stated)
targetDesc: Sodium-dependent serotonin transporter (Rattus norvegicus, UniProt P31652)
categoryLabel: high-valued
//
compound: Fc1ccc(C(OCCN2CC3CCC(C2)N3C/C=C/c2cccnc2)c2ccc(F)cc2)cc1
targetDesc: Sodium-dependent serotonin transporter (Rattus norvegicus, UniProt P31652)
categoryLabel: mid-valued

Could you place Fc1ccc(C(OCCN2CC3CCC(C2)N3Cc2cc3ccccc3[nH]2)c2ccc(F)cc2)cc1 in its proper category? Many thanks.
low-valued

Could you place c1ccc(C(OCCN2CCC3CCC(C2)N3)c2ccccc2)cc1 (configuration not stated) in its proper category? Many thanks.
high-valued

Could you place CN1C2CCC1CN(CCOC(c1ccccc1)c1ccccc1)CC2 (configuration not stated) in its proper category? Many thanks.
high-valued

Could you place Fc1ccc(C(OCCN2CC3CCC(C2)N3C/C=C/c2cccs2)c2ccc(F)cc2)cc1 in its proper category? Many thanks.
low-valued

Could you place CN1CC2CC1CN2CCOC(c1ccccc1)c1ccccc1 (configuration not stated) in its proper category? Many thanks.
high-valued
